# assay system: T1, recombinant biotinylated human PAR2 extracellular domain (residues 1-75), N-terminal AviTag, C-terminal Flag … (human, UniProt P55085 26-75, biotin on the AviTag (enzymatic biotinylation))
# T1 construct: also called Bio-human-PAR2 ECD; human PAR2 ECD; not shown: N-terminal AviTag (Avidity LLC); C-terminal Flag and poly Histidine tags
# T1 sequence (P55085 26-75): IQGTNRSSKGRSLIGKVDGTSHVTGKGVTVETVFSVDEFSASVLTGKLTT
# procedure details: HTRF competition with Par0067 IgG, pH 7.4, scFv
Reported IC50 is given for each of the following binders.
Dear colleague, please return just the value in nM, with no unit written.

1. PaB670045 scFv (scFv, V domains shown, purified scFv; also called ZZ1KX3-F01) VH: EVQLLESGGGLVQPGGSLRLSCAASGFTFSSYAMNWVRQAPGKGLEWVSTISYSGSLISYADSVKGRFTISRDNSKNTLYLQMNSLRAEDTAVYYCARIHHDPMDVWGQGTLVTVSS VL: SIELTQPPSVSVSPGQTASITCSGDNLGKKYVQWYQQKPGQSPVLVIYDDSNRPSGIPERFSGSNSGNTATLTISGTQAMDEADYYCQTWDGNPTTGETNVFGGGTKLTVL : 9.8
2. PaB670108 scFv (scFv, V domains shown, purified scFv; also called ZZ1RD3-H03) VH: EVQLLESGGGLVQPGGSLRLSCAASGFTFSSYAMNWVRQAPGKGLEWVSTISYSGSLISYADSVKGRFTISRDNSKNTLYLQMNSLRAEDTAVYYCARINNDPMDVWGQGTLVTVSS VL: SIELTQPPSVSVSPGQTASITCSGDNLGKKYVQWYQQKPGQSPVLVIYDDSNRPSGIPERFSGSNSGNTATLTISGTQAMDEADYYCQHWHGHHHTGETNVFGGGTKLTVL : 29.1
3. PaB670076 scFv (scFv, V domains shown, purified scFv; also called ZZ1NHH-F09) VH: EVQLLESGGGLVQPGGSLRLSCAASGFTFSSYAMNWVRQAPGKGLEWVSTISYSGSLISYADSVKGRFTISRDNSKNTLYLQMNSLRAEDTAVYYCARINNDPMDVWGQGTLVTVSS VL: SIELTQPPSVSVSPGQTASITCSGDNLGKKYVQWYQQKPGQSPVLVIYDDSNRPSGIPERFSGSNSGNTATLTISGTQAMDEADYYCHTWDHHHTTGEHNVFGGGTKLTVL : 46.2

The reported value for PaB670106 scFv (scFv, V domains shown, purified scFv; also called ZZ1RD0-G02) VH: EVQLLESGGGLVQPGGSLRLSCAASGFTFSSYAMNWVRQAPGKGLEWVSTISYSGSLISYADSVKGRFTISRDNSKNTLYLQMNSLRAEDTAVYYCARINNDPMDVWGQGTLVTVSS VL: SIELTQPPSVSVSPGQTASITCSGDNLGKKYVQWYQQKPGQSPVLVIYDDSNRPSGIPERFSGSNSGNTATLTISGTQAMDEADYYCHTWDHNPHHHHTNHFGGGTKLTVL in terms of IC50 is 313

Summary for this binder, PaB670073 scFv (scFv, V domains shown, purified scFv; also called ZZ1L3F-H03) VH: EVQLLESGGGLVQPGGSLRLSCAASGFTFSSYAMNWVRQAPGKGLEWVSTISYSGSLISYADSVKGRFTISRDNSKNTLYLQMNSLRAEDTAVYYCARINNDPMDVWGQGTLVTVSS VL: SIELTQPPSVSVSPGQTASITCSGDNLGKKYVQWYQQKPGQSPVLVIYDDSNRPSGIPERFSGSNSGNTATLTISGTQAMDEADYYCQHWHGHPHHGEHNVFGGGTKLTVL : IC50 is 72.1

Attribution: patent US20180305450A1
